# System: sNF96.2
# method: RASOpathie-Model; MTT assay for cell viability in 96 well cell culture plate (FIG. 5)
# Assay type: cell-based
# recordedConditions: 48 h treatment
observationType: pIC50
Recall that pIC50 is obtained by taking minus log10 of the concentration measured in molar.

Measured pIC50, COc1ncc(-c2ccc3nccc(-c4ccnnc4)c3c2)cc1NS(=O)(=O)c1ccc(F)cc1F [GSK2126458] : 5.42

Origin of measurements: patent US20250368617A1
